Test system: BHK-21 cells
Details: hamster
Cytotoxicity CC10 (maximum non-toxic concentration) overview
measured-parameter: Cytotoxicity CC10 (maximum non-toxic concentration) (µM)

- molecule: "c1cc2c(cc1[C@H]1OC[C@H]3[C@@H]1CO[C@@H]3c1ccc3c(c1)OCO3)OCO2"
  result-units: "µM"
  result: 254.20
- molecule: "COc1cc([C@@H]2c3cc4c(cc3[C@H](O)[C@H]3COC(=O)[C@@H]23)OCO4)cc(OC)c1OC"
  result-units: "µM"
  result: 50.07
- molecule: "COc1cc(C2OCC3C(c4cc(OC)c(OC5OC(CO)C(O)C(O)C5O)c(OC)c4)OCC23)cc(OC)c1OC1OC(CO)C(O)C(O)C1O (centres unmarked) [Eleutheroside E]"
  result-units: "µM"
  result: 11.39
- molecule: "OC12COC(c3ccc4c(c3)OCO4)C1COC2c1ccc2c(c1)OCO2 (centres unmarked)"
  result-units: "µM"
  result: 147.00
- molecule: "c1cc2c(cc1[C@H]1OC[C@H]3[C@@H]1CO[C@H]3c1ccc3c(c1)OCO3)OCO2 [(-)-Asarinin]"
  result-units: "µM"
  result: 65.05
